Recorded values, source ChEMBL document CHEMBL3872276.

# assay.procedure: cells
# conditions.used: Homo sapiens, DU-145, 48 h
pIC50: −log10 of the molar value.
// N strictly below 5 in pIC50; Y otherwise

* CCc1ccccc1CCOC(=O)/C=C/c1ccc(O)c(O)c1 | Y
* O=C(/C=C/c1ccc(O)c(O)c1)OCCc1ccc(Br)cc1 | N
* O=C(/C=C/c1ccc(O)c(O)c1)OCCc1ccccc1 [CAFFEIC ACID PHENETHYL ESTER] | N
* O=C(/C=C/c1ccc(O)c(O)c1)OCCc1ccc(Cl)cc1 | N

###

# assay.procedure: cells
# conditions.used: Homo sapiens, ECa-109, 48 h
measurement.name: IC50 (µM)

• Cc1ccccc1CCOC(=O)/C=C/c1ccc(O)c(O)c1 = 8.2
• CCc1ccccc1CCOC(=O)/C=C/c1ccc(O)c(O)c1 = 7.3
• COc1ccccc1CCOC(=O)/C=C/c1ccc(O)c(O)c1 = 5.9
• Cc1ccc(CCOC(=O)/C=C/c2ccc(O)c(O)c2)cc1 = 20.9
• O=C(/C=C/c1ccc(O)c(O)c1)OCCc1ccc(Cl)cc1 = 28.4
• O=C(/C=C/c1ccc(O)c(O)c1)OCCc1ccc(O)cc1 [TYROSOL CAFFEATE] = 49.4
• O=C(/C=C/c1ccc(O)c(O)c1)OCCc1ccccc1O = 40.2
• O=C(/C=C/c1ccc(O)c(O)c1)OCCc1ccc(Br)cc1 = 40.3
• O=C(/C=C/c1ccc(O)c(O)c1)OCCc1ccccc1 = 47.5
• O=C(/C=C/c1ccc(O)c(O)c1)OCCc1ccc(F)cc1 = 51.9
• CC(C)Oc1ccccc1CCOC(=O)/C=C/c1ccc(O)c(O)c1 = 15.1

###

# assay.procedure: cells
# conditions.used: Homo sapiens, HeLa, 48 h
pIC50: −log10 of the molar value.
measurement.name: pIC50

• CC(C)Oc1ccccc1CCOC(=O)/C=C/c1ccc(O)c(O)c1 = 5.49
• O=C(/C=C/c1ccc(O)c(O)c1)OCCc1ccccc1O = 4.53
• CCc1ccccc1CCOC(=O)/C=C/c1ccc(O)c(O)c1 = 5.38
• O=C(/C=C/c1ccc(O)c(O)c1)OCCc1ccc(Br)cc1 = 4.25
• CC(=O)O[C@H]1C(=O)[C@@]2(C)[C@H]([C@H](OC(=O)c3ccccc3)[C@]3(O)C[C@H](OC(=O)[C@H](O)[C@@H](NC(=O)c4ccccc4)c4ccccc4)C(C)=C1C3(C)C)[C@]1(OC(C)=O)CO[C@@H]1C[C@@H]2O = 7.44
• Cc1ccc(CCOC(=O)/C=C/c2ccc(O)c(O)c2)cc1 = 4.59
• O=C(/C=C/c1ccc(O)c(O)c1)OCCc1ccc(O)cc1 [TYROSOL CAFFEATE] = 4.34
• O=C(/C=C/c1ccc(O)c(O)c1)OCCc1ccccc1 = 4.48
• O=C(/C=C/c1ccc(O)c(O)c1)OCCc1ccc(Cl)cc1 = 4.65
• Cc1ccccc1CCOC(=O)/C=C/c1ccc(O)c(O)c1 = 5.64
• Cc1cccc(CCOC(=O)/C=C/c2ccc(O)c(O)c2)c1 = 5.27
• COc1ccccc1CCOC(=O)/C=C/c1ccc(O)c(O)c1 = 5.80
• O=C(/C=C/c1ccc(O)c(O)c1)OCCc1ccc(F)cc1 = 4.45
• COc1ccc(CCOC(=O)/C=C/c2ccc(O)c(O)c2)cc1 = 4.17
